test: Irradiation experiments: photolytic cleavage of the 5' protective group with polychromatic light, followed by HPLC
Type: physicochemical
condition_summary: meoh/h2o 1:1, 200 µM
endpoint_label: t0.5 (half-life of photolytic deprotection) (min)

[[record]]
molecule = "Cc1cn([C@H]2C[C@H](O)[C@@H](COC(=O)OCCc3ccccc3[N+](=O)[O-])O2)c(=O)[nH]c1=O"
observed_measurement = 2.6

[[record]]
molecule = "Cc1cn([C@H]2C[C@H](O)[C@@H](COC(=O)OCCc3c(Cl)cc(Cl)cc3[N+](=O)[O-])O2)c(=O)[nH]c1=O"
observed_measurement = 1.68

[[record]]
molecule = "Cc1cn([C@H]2C[C@H](O)[C@@H](COC(=O)OCCc3c(Cl)cccc3[N+](=O)[O-])O2)c(=O)[nH]c1=O"
observed_measurement = 1.71

[[record]]
molecule = "Cc1cn([C@H]2C[C@H](O)[C@@H](COC(=O)OCc3ccccc3[N+](=O)[O-])O2)c(=O)[nH]c1=O [Compound V1, 5'-O-(2-nitrobenzyloxycarbonyl)thymidine, reference compound]"
observed_measurement = 2.5

[[record]]
molecule = "Cc1cn([C@H]2C[C@H](O)[C@@H](COC(=O)OCCc3c(Br)cccc3[N+](=O)[O-])O2)c(=O)[nH]c1=O"
observed_measurement = 1.71


(a) Cc1cn([C@H]2C[C@H](O)[C@@H](COC(=O)OCCc3ccc(Cl)cc3[N+](=O)[O-])O2)c(=O)[nH]c1=O
(b) Cc1cn([C@H]2C[C@H](O)[C@@H](COC(=O)OCC(C)c3ccccc3[N+](=O)[O-])O2)c(=O)[nH]c1=O (stereo partly drawn)
(c) Cc1cn([C@H]2C[C@H](O)[C@@H](COC(=O)OCC(Cl)c3ccccc3[N+](=O)[O-])O2)c(=O)[nH]c1=O (stereo partly drawn)
(d) COc1cc(CCOC(=O)OC[C@H]2O[C@@H](n3cc(C)c(=O)[nH]c3=O)C[C@@H]2O)c([N+](=O)[O-])cc1OC
query: Falling order of t0.5 (half-life of photolytic deprotection), please. Please write the labels in the order that was asked for.
result: d, a, c, b
